Measured values drawn from patent US11066414B2 for this set.

# System: TNFα
# protocol summary: Cot Monocyte TNFα Cell Based Assay
# measurement parameters: Homo sapiens, Monocyte, read-out: EC50 TNF, LPS-stimulated human monocytes, TNFα
pEC50: −log10 of the molar value.
readout type: pEC50

Answered examples (2):
compound	pEC50
CCN1CCC(n2cc([C@@H](Nc3cc(Cl)c4ncc(C#N)c(Nc5ccc(F)c(Cl)c5)c4c3)c3cccnc3)nn2)CC1	7.34
Cc1ncccc1[C@H](Nc1cc(Cl)c2ncc(C#N)c(Nc3cnc(F)c(F)c3)c2c1)c1cn(C2COC2)nn1	6.08

I = Cc1ncccc1[C@H](Nc1cc(Cl)c2ncc(C#N)c(NCC(C)(C)C)c2c1)c1cn(C2CC2)nn1
II = [2H]C(Nc1cc(Cl)c2ncc(C#N)c(N[C@H](CC)c3ccccc3)c2c1)(c1cn(C2CC2)nn1)c1scnc1C (stereo partly drawn)
Request: Of I and II , which one carries the higher reported pEC50? The response must carry the label of the picked entry.
Result: I

P = [2H]C(Nc1cc(Cl)c2ncc(C#N)c(NCC(C)(C)C)c2c1)(c1cn(C2CC2)nn1)c1ccc(Cl)nc1C (stereo not drawn)
Q = CC(C)(C)CNc1c(C#N)cnc2c(Cl)cc(N[C@H](c3cn(C4(C(N)=O)CC4)nn3)c3cccc4ncsc34)cc12
R = Cc1nc(F)ccc1[C@H](Nc1cc(Cl)c2ncc(C#N)c(NCC34CC(C3)C4)c2c1)c1cn(C2(C(F)(F)F)CC2)nn1
S = CC(C)(C)CNc1c(C#N)cnc2c(Cl)cc(N[C@H](c3cn(C4CC4)nn3)c3cccc4cnccc34)cc12
Request: Put the items in sequence by pEC50, from largest down. # respond with the labels, arranged in the requested order
Result: S, P, Q, R
(S: 7.72, P: 7.11, Q: 6.91, R: 6.51)

A = [2H][C@](Nc1cc(Cl)c2ncc(C#N)c(NCC(C)(C)C)c2c1)(c1cccnc1)c1cn(-c2cccnc2)nn1
B = CC[C@@H](Nc1c(C#N)cnc2c(Cl)cc(N[C@@H](c3cccnc3)c3cn(CCF)nn3)cc12)c1ccccc1
Request: Given the two records A and B , choose the one whose pEC50 value is lower. The response must carry the label of the picked entry.
Result: A
